biological target: T1, SARS-CoV-2 S on CHO-S cells (SARS-CoV-2, UniProt P0DTC2 14-1273); test: flow cytometry, CHO-S cells
T1 construct: whole, on cells
assay-endpoint: pEC50
Answers are plain numbers, as −log10 of the molar value.

Some binders with known pEC50 results, for comparison:
binder	measured-result
NRCoV2-S2H4 VHH-Fc (Fc fusion, bivalent VHH-Fc) QVQLVQSGGGLVQAGGSLRLSCAASGFTFNLYSIAWFRQAPGKEREGVSCINSGDRDSTTYYADSVKGRFTISRDNAKHTAYLQMDSLKPEDTAVYYCALVFGYTSRDYCLTPKRGNYWGQGTQVTVSS	9.00
NRCoV2-20 VHH-Fc (Fc fusion, bivalent VHH-Fc) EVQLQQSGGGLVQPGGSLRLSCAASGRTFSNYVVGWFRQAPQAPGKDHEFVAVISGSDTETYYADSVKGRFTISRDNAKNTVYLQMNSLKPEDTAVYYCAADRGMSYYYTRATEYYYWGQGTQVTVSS	9.15
NRCoV2-06 VHH-Fc (Fc fusion, bivalent VHH-Fc) EVQLVQSGGGLVQAGESLRLSCAASVSTFSSYAMGWYRQAPGKQRELVASIGFVGATYYIDSVKGRFTISRDNAKKTAYLQMNDLKPDDTAVYYCNARHYGGSEYWGQGTQVTVSS	8.09
NRCoV2-MRed25 VHH-Fc (Fc fusion, bivalent VHH-Fc) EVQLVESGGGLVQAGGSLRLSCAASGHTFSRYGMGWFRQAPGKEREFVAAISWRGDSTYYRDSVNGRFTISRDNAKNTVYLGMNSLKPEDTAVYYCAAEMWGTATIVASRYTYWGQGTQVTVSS	9.10
NRCoV2-MRed18 VHH-Fc (Fc fusion, bivalent VHH-Fc) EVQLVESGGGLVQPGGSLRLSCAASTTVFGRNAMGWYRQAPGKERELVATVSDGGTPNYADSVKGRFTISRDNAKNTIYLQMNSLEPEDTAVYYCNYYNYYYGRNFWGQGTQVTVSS	9.05

Batch lookup, pEC50 per entry.
1. NRCoV2-11 VHH-Fc (Fc fusion, bivalent VHH-Fc) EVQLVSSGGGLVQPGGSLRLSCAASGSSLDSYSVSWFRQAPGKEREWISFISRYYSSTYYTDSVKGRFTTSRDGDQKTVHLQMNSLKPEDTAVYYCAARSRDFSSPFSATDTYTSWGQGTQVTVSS
2. NRCoV2-S2F3 VHH-Fc (Fc fusion, bivalent VHH-Fc) EVQLVQSGGGLVQAGGSLRLSCATSVRILSVPAMGWYRQAPGKEREMVAVITSGGSTNYADSVKGRFTISRDNAKNTVYLQMNSLKLEDTAVYQCNLRDILSQPFWGQGTQVTVSS

Solution:
[8.37, 8.57]

Lab book: pEC50 of NRCoV2-MRed22 VHH-Fc (Fc fusion, bivalent VHH-Fc) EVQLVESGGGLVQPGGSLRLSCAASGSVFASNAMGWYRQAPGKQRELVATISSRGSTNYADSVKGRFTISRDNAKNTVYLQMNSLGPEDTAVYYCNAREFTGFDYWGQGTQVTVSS noted as 9.70

Attribution: patent US20240270826A1
